target: Virion infectivity factor (Human immunodeficiency virus type 1 group M subtype B (isolate BH10)) + Virion infectivity factor (Human immunodeficiency virus type 1 group M subtype B (isolate BRU/LAI)) + Virion infectivity factor (Human immunodeficiency virus type 1 group M subtype B (isolate PCV12)) + Virion infectivity factor (Human immunodeficiency virus type 1 group M subtype B (isolate HXB2)) (UniProt P69720+P69721+P69722+P69723); assay: dose-dependent disruption of HIV Vif self-association – imaging, HEK293T, cherry-picks, dose response (AID 652241); details: HEK293T Vif multimerization imaging, 24 h;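 further: imaged cell signal that rises when Vif self-association is disrupted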
Sequence (P69720 whole entry, looked up): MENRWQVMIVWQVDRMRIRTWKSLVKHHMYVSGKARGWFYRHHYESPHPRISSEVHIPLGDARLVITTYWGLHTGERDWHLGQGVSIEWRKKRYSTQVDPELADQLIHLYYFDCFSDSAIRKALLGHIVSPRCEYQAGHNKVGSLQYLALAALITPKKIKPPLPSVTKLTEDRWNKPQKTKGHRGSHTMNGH
Sequence (P69721 whole entry, looked up): as the sequence (P69720 whole entry, looked up) above
Sequence (P69722 whole entry, looked up): as the sequence (P69720 whole entry, looked up) above
Sequence (P69723 whole entry, looked up): as the sequence (P69720 whole entry, looked up) above
Inconclusive results are not listed. The source made the active and inactive calls.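 How the source made its calls: active means fitted curve reaches activity 50 in the expected rising direction at or below the top valid tested dose; inconclusive means no clear call, values can overlap the other calls; inactive means activity in the wrong direction, and the rest.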
Outcomes: 1 for active, 0 for inactive

In [3]: df
Out[3]:
                                    compound  assigned_category
 0  Cc1cc(NC(=O)CSc2nc3c(sc4ccccc43)c(=O)n2CCCN2CCOCC2)n[nH]1                  1
 1  Nc1c(C(=O)Nc2nc3ccccc3s2)sc2nc(-c3cccs3)ccc12                  1
 2  CCOC(=O)c1cc(-c2ccccc2)sc1NC(=O)COC(=O)c1cccc(S(N)(=O)=O)c1                  1
 3  COc1ccc(-c2nc3cnccn3c2NC2CCCCC2)cc1-c1cccc(Cl)c1                  1
 4  COc1cc(-c2cnc3c(NC=O)cc(-c4ccccc4Cl)cn23)cc(OC)c1OC                  1
 5  Cc1cc(NC(=O)NC2(C(F)(F)F)Oc3ccc(Cl)cc3O2)no1 (configuration not stated)                  1
 6  CCCc1cc(=O)oc2cc(OCc3cc(OC)c(OC)c(OC)c3)c(Cl)cc12                  1
 7             O=C(/C=C/c1ccccc1)Nc1ncn[nH]1                  1
 8  NC(CCc1ccccc1)c1csc(Nc2ccc(C(=O)c3ccccc3)cc2)n1 (configuration not stated)                  1
 9  COc1cc(-c2cc(=O)c3c(O)c(OC)c(OC)c(O)c3o2)ccc1O                  0
10  COc1ccc(NC(=O)Cn2ncc(Cl)c(Cl)c2=O)cc1S(=O)(=O)N1CCOCC1                  0
11       Cc1cc(Cl)n2c(nc3cc(F)c(F)cc32)c1C#N                  1
12  CCOc1cc(/C=C2\CN(CC)C/C(=C\c3ccc(O)c(OCC)c3)C2=O)ccc1O                  1
13  COc1ccc(-c2cc(C(=O)Nc3cnn(Cc4ccccc4C)c3)no2)cc1OC                  1
14  CC(=O)Nc1ccc(NC(=O)COc2ccccc2C(=O)Nc2cccc(Cl)c2Cl)cc1                  1
15  C=CCNc1ncnc2c1ncn2C1OC(CO)C(O)C1O (configuration not stated)                  1
16  COc1ccc(CCNc2nnc(Sc3nnnn3-c3ccccc3)s2)cc1OC                  1
17     Cn1nnnc1Sc1ncnc2scc(-c3ccc(Cl)cc3)c12                  1
18  O=C(CCCCCn1c(=S)[nH]c2ccc(N3CCOCC3)cc2c1=O)NCc1ccccc1Cl                  1
19  CCc1ccc(S(=O)(=O)Nc2ccc(-c3ccc4nnc(C)n4n3)cc2)s1                  1
20  COc1ccc(-n2nc(C(=O)NCC(=O)Nc3cccc(Cl)c3)c3ccccc3c2=O)cc1OC                  1
21  Cc1ccnc(NC(=O)CCCOc2cc(=O)n(C)c3ccccc23)c1                  1
22  Cc1ccc(C(c2cc(Cl)c3cccnc3c2O)N2CCN(C)CC2)cc1 (configuration not stated)                  1
23  Cc1nnc2ccc(-c3cccc(NS(=O)(=O)c4cc(F)ccc4F)c3)nn12                  1
24  Cc1ccc2c(COC(=O)c3ccccc3OC(F)F)cc(=O)oc2c1                  1
25  COc1ccc(/C=C/C(=O)c2cc(F)ccc2OC(=O)c2ccccc2OC)cc1OC                  1
26  Cc1ccc(CNC(=O)c2cccc3c2C(=O)c2ccc(N4CCC(C)CC4)cc2S3(=O)=O)cc1                  1
27  COCCNC(=O)c1nn2c(C(F)(F)F)cc(-c3ccccc3)nc2c1Cl                  0
28  CCc1ccc2[nH]c3nc(SCC(=O)NNC(=O)c4ccc(C(C)(C)C)cc4)nnc3c2c1                  1
29  CCOc1ccc(N2C(=O)/C(=C/c3cccs3)N(CC(=O)OC)C2=S)cc1                  0
30  O=C(COc1ccc(-n2cnnn2)cc1)Nc1cc(Cl)cc(Cl)c1                  1
31         CCN(CC)c1ccc2cc(C(N)=O)c(=O)oc2c1                  0
32           COC(=O)c1ccc(NCc2cc(O)ccc2O)cc1                  1
33  O=C(NCc1ccccc1C(F)(F)F)c1cccc2c1C(=O)c1ccc(N3CCCCC3)cc1S2(=O)=O                  1
34  O=C(NC1(C(F)(F)F)Oc2ccc(Cl)cc2O1)N1CCC2(CC1)OCCO2 (configuration not stated)                  1
35  Cc1nnc2ccc(-c3ccc(NS(=O)(=O)c4ccc(F)cc4F)cc3)nn12                  0
36  CCOC(=O)c1[nH]c2c(c1C)C(=O)CC(c1ccco1)C2 (configuration not stated)                  1
37  COc1cccc(NC(=O)NC2(C(F)(F)F)Oc3ccccc3O2)c1                  0
38  COc1cccc(-c2cc(=O)c3cc(NC(=O)c4ccccc4)ccc3[nH]2)c1                  1
39  Cn1c(=O)[nH]c(=O)c2c1nc([N+](=O)[O-])n2Cc1ccccc1                  1
40  O=C(NCc1cccnc1)NC1(C(F)(F)F)Oc2ccc(Cl)cc2O1 (configuration not stated)                  1
41          COC(=O)c1ccc(NCc2cc(O)ccc2O)cc1O                  1

Reference for the values: PubChem BioAssay AID652241
